The origin of these recorded values is PubChem BioAssay AID1963839.

Each entry below lists one item and its recorded log10 of IC50 value.
- Tested on: 817829-284-R-J1-PDC complex spheroid viability
- Test Protocol: Anticancer human tumor 817829-284-R-J1-PDC patient-derived colon adenocarcinoma cell line growth inhibition [POLQ]
- Run Conditions: curve of first compound; second compound 0.1 µM
Assay Metric: log10 of IC50 (log10 of the value in nM)

- Compound: "O=C(c1cc(Cc2n[nH]c(=O)c3ccccc23)ccc1F)N1CCN(C(=O)C2CC2)CC1 + Nc1ccc(C#CCN(C(=O)Cc2ncc(C(F)(F)F)cc2C(F)(F)F)c2ccc(F)cc2)nn1"
  log10 of IC50: 3.40
- Compound: "CNCc1ccc(-c2[nH]c3cc(F)cc4c3c2CCNC4=O)cc1 + Nc1ccc(C#CCN(C(=O)Cc2ncc(C(F)(F)F)cc2C(F)(F)F)c2ccc(F)cc2)nn1"
  log10 of IC50: 3.89
- Compound: "CCc1cc2c(N3CCc4c(cc(Cn5ccnc5)cc4-c4cn(C)nc4C(F)(F)F)C3=O)ccnc2c(OC)n1 + COC1C(OC(N)=O)C(O)C(Oc2ccc3c(O)c(NC(=O)c4ccc(O)c(CC=C(C)C)c4)c(=O)oc3c2C)OC1(C)C"
  log10 of IC50: 3.52
- Compound: "O=C(c1cc(Cc2n[nH]c(=O)c3ccccc23)ccc1F)N1CCN(C(=O)C2CC2)CC1 + Cc1cccc(N(C)C(=O)C2C(O)CCN2c2nc(C)cc(C(F)(F)F)c2C#N)c1"
  log10 of IC50: 3.27
- Compound: "CC[C@@]1(O)C(=O)OCc2c1cc1n(c2=O)Cc2cc3c(CN(C)C)c(O)ccc3nc2-1 + Nc1ccc(C#CCN(C(=O)Cc2ncc(C(F)(F)F)cc2C(F)(F)F)c2ccc(F)cc2)nn1"
  log10 of IC50: 0.99
- Compound: "O=C(Nc1ccc(O)c(NS(=O)(=O)c2ccc(F)cc2)c1)c1ccc(-c2ccccc2)cc1 + Nc1ccc(C#CCN(C(=O)Cc2ncc(C(F)(F)F)cc2C(F)(F)F)c2ccc(F)cc2)nn1"
  log10 of IC50: 3.85
- Compound: "CC1COCCN1c1cc(-c2ccnn2C)c2ccnc(-c3ccn[nH]3)c2n1 (stereo not given) + Nc1ccc(C#CCN(C(=O)Cc2ncc(C(F)(F)F)cc2C(F)(F)F)c2ccc(F)cc2)nn1"
  log10 of IC50: 1.68
- Compound: "COc1cccc(OCCCN)c1-c1cc(Nc2cnc(C#N)cn2)n[nH]1 + Nc1ccc(C#CCN(C(=O)Cc2ncc(C(F)(F)F)cc2C(F)(F)F)c2ccc(F)cc2)nn1"
  log10 of IC50: 0.72
- Compound: "C=CC(=O)N1CCN(c2nc(=O)n(-c3c(C)ccnc3C(C)C)c3nc(-c4c(O)cccc4F)c(F)cc23)C(C)C1 (stereo not given) + Cc1cccc(N(C)C(=O)C2C(O)CCN2c2nc(C)cc(C(F)(F)F)c2C#N)c1"
  log10 of IC50: 3.98
- Compound: "COc1cc(C2c3cc4c(cc3C(OC3OC5COC(C)OC5C(O)C3O)C3COC(=O)C23)OCO4)cc(OC)c1O (stereo not given) + COC1C(OC(N)=O)C(O)C(Oc2ccc3c(O)c(NC(=O)c4ccc(O)c(CC=C(C)C)c4)c(=O)oc3c2C)OC1(C)C"
  log10 of IC50: 1.79
- Compound: "CC[C@@]1(O)C(=O)OCc2c1cc1n(c2=O)Cc2cc3c(CN(C)C)c(O)ccc3nc2-1 + Cc1cccc(N(C)C(=O)C2C(O)CCN2c2nc(C)cc(C(F)(F)F)c2C#N)c1"
  log10 of IC50: 0.88
- Compound: "O=c1[nH]cc(F)c(=O)[nH]1 + Nc1ccc(C#CCN(C(=O)Cc2ncc(C(F)(F)F)cc2C(F)(F)F)c2ccc(F)cc2)nn1"
  log10 of IC50: 3.25
- Compound: "COc1cc(C2c3cc4c(cc3C(OC3OC5COC(C)OC5C(O)C3O)C3COC(=O)C23)OCO4)cc(OC)c1O (stereo not given) + Nc1ccc(C#CCN(C(=O)Cc2ncc(C(F)(F)F)cc2C(F)(F)F)c2ccc(F)cc2)nn1"
  log10 of IC50: 2.00

====

Each entry below lists one item and its recorded viability, T/C value.
- Tested on: 817829-284-R-J1-PDC complex spheroid viability
- Test Protocol: Anticancer human tumor 817829-284-R-J1-PDC cell line growth inhibition [POLQ];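 note: spheroids exposed to compounds for 7 days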;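 for viability, T/C: 100% = DMSO vehicle-treated spheroids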
- Run Conditions: second compound 0.0316 µM; first compound 0.1 µM; stronger effect = lower value

- Compound: "CCc1c2c(nc3ccc(O)cc13)-c1cc3c(c(=O)n1C2)COC(=O)[C@]3(O)CC + Nc1ccc(C#CCN(C(=O)Cc2ncc(C(F)(F)F)cc2C(F)(F)F)c2ccc(F)cc2)nn1"
  viability, T/C: "9.79%"
- Compound: "COc1cc(C2c3cc4c(cc3C(OC3OC5COC(C)OC5C(O)C3O)C3COC(=O)C23)OCO4)cc(OC)c1O (stereo not drawn) + Nc1ccc(C#CCN(C(=O)Cc2ncc(C(F)(F)F)cc2C(F)(F)F)c2ccc(F)cc2)nn1"
  viability, T/C: "43.9%"
- Compound: "COc1cccc(OCCCN)c1-c1cc(Nc2cnc(C#N)cn2)n[nH]1 + COC1C(OC(N)=O)C(O)C(Oc2ccc3c(O)c(NC(=O)c4ccc(O)c(CC=C(C)C)c4)c(=O)oc3c2C)OC1(C)C"
  viability, T/C: "5.85%"

====

Each entry below lists one item and its recorded viability, T/C value.
- System: 817829-284-R-J1-PDC complex spheroid viability
- Test Protocol: Anticancer human tumor 817829-284-R-J1-PDC cell line growth inhibition [POLQ];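 note: spheroids exposed to compounds for 7 days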;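 for viability, T/C: 100% = DMSO vehicle-treated spheroids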
- Run Conditions: second compound 0.316 µM; first compound 0.0316 µM; stronger effect = lower value

- Molecule: "O=C(c1cc(Cc2n[nH]c(=O)c3ccccc23)ccc1F)N1CCN(C(=O)C2CC2)CC1 + Nc1ccc(C#CCN(C(=O)Cc2ncc(C(F)(F)F)cc2C(F)(F)F)c2ccc(F)cc2)nn1"
  viability, T/C: "90.3%"
- Molecule: "COc1cc2cc(C(=O)CCC(=O)O)sc2cc1OC + Nc1ccc(C#CCN(C(=O)Cc2ncc(C(F)(F)F)cc2C(F)(F)F)c2ccc(F)cc2)nn1"
  viability, T/C: "93.1%"
- Molecule: "CC1COCCN1c1cc(C2(O)CC3CCC(C2)O3)c2cnn(-c3ccn[nH]3)c2n1 (stereo not given) + Cc1cccc(N(C)C(=O)C2C(O)CCN2c2nc(C)cc(C(F)(F)F)c2C#N)c1"
  viability, T/C: "28.6%"
- Molecule: "CC(C)n1c(=O)n(C)c2cnc3cc(F)c(-c4ccc(OCCCN5CCCCC5)nc4)cc3c21 + COC1C(OC(N)=O)C(O)C(Oc2ccc3c(O)c(NC(=O)c4ccc(O)c(CC=C(C)C)c4)c(=O)oc3c2C)OC1(C)C"
  viability, T/C: "78.5%"
- Molecule: "COc1cccc2c1C(=O)c1c(O)c3c(c(O)c1C2=O)CC(O)(C(=O)CO)CC3OC1CC(N)C(O)C(C)O1 (stereo not given) + Nc1ccc(C#CCN(C(=O)Cc2ncc(C(F)(F)F)cc2C(F)(F)F)c2ccc(F)cc2)nn1"
  viability, T/C: "21.1%"

====

- Test system: 817829-284-R-J1-PDC complex spheroid viability
- Test Protocol: Anticancer human tumor 817829-284-R-J1-PDC cell line growth inhibition [POLQ];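 note: spheroids exposed to compounds for 7 days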
- Run Conditions: curve of first compound; second compound 3.16 µM
Each entry below lists one item and its recorded IC50 value.

- Compound: "CC[C@@]1(O)C(=O)OCc2c1cc1n(c2=O)Cc2cc3c(CN(C)C)c(O)ccc3nc2-1 + Cc1cccc(N(C)C(=O)C2C(O)CCN2c2nc(C)cc(C(F)(F)F)c2C#N)c1"
  Unit Symbol: "nM"
  Censor Symbol: "="
  IC50: 7.21
- Compound: "C#Cc1c(F)ccc2cc(O)cc(-c3ncc4c(N5CC6CCC(C5)N6)nc(OCC56CCCN5CC(F)C6)nc4c3F)c12 (stereo not given) + COC1C(OC(N)=O)C(O)C(Oc2ccc3c(O)c(NC(=O)c4ccc(O)c(CC=C(C)C)c4)c(=O)oc3c2C)OC1(C)C"
  Unit Symbol: "nM"
  Censor Symbol: ">"
  IC50: 10000
- Compound: "Nc1ccn(C2OC(CO)C(O)C2(F)F)c(=O)n1 (stereo not given) + Cc1cccc(N(C)C(=O)C2C(O)CCN2c2nc(C)cc(C(F)(F)F)c2C#N)c1"
  Unit Symbol: "nM"
  Censor Symbol: "<"
  IC50: 31.6
- Compound: "COc1cc(C2c3cc4c(cc3C(OC3OC5COC(C)OC5C(O)C3O)C3COC(=O)C23)OCO4)cc(OC)c1O (stereo not given) + Nc1ccc(C#CCN(C(=O)Cc2ncc(C(F)(F)F)cc2C(F)(F)F)c2ccc(F)cc2)nn1"
  Unit Symbol: "nM"
  Censor Symbol: "="
  IC50: 83.6
- Compound: "CNCc1ccc(-c2[nH]c3cc(F)cc4c3c2CCNC4=O)cc1 + Cc1cccc(N(C)C(=O)C2C(O)CCN2c2nc(C)cc(C(F)(F)F)c2C#N)c1"
  Unit Symbol: "nM"
  Censor Symbol: "="
  IC50: 3320
